Would you mind telling me the reported koff of each entry?
Target: T1, biotinylated 6His tag-AviTag-linked mature human IL-33 (residues 112 to 270) (human, UniProt O95760 112-270, biotin on the AviTag portion (BirA))
T1 construct: made in E. coli; also called biotinylated human IL-33 protein
T1 sequence: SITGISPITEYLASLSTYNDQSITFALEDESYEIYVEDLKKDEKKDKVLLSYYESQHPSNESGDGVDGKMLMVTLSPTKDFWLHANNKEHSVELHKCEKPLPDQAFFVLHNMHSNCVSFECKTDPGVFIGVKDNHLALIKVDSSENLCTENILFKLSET
Experiment: SPR, IL-33 on chip, Fab supernatant as analyte

binder: A28-1G07 (Fab) (Fab, V domains shown, Fab secreted by E. coli, tested as culture supernatant; also called V24) VH: EVQLLESGGGLVQPGGSLRLSCAASGFTFSNYYMHWVRQAPGKGLEWVSSISARSSYRYYADSVKGRFTISRDNSKNTLYLQMNSLRAEDTAVYYCARLATRHSAFDIWGQGTLVTVSS VL: QSVLTQPPSASGTPGQRVTISCSGSSSNIGHNAVSWYQQLPGTAPKLLIYASNMRRLGVPDRFSGSKSGTSASLAISGLRSEDEADYYCGAWDDSQKVVVFGGGTKLTVL
koff: 1e-05 s⁻¹
//
binder: A25-2B02 (Fab) (Fab, V domains shown, Fab secreted by E. coli, tested as culture supernatant; also called V10) VH: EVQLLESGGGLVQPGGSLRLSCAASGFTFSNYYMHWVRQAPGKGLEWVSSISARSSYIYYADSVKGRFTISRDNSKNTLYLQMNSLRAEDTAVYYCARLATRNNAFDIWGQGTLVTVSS VL: QSVLTQPPSASGTPGQRVTISCSGSSSNIGRNAVNWYQQLPGTAPKLLIYASNMRVLGVPDRFSGSKSGTSASLAISGLRSEDEADYYCWAWDDSQKAVVFGGGTKLTVL
koff: 1e-05 s⁻¹
//
binder: A00-0070 (Fab) (Fab, V domains shown, parental clone as Fab; also called V29; parental clone (Fab)) VH: EVQLLESGGGLVQPGGSLRLSCAASGFTFSDYYMNWVRQAPGKGLEWVSSISSSSSYIYYADSVKGRFTISRDNSKNTLYLQMNSLRAEDTAVYYCARDIGGMDVWGQGTLVTVSS VL: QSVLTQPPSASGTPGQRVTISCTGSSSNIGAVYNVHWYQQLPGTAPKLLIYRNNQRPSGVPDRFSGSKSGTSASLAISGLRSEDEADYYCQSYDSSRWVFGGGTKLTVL
koff: 0.00427 s⁻¹
//
binder: A13-1G05 (Fab) (Fab, V domains shown, Fab secreted by E. coli, tested as culture supernatant; also called V7) VH: EVQLLESGGGLVQPGGSLRLSCAASGFTFSDYYVNWVRQAPGKGLEWVSSISRYSGYVYYADSVKGRFTISRDNSKNTLYLQMNSLRAEDTAVYYCARDIGGMDVWGQGTLVTVSS VL: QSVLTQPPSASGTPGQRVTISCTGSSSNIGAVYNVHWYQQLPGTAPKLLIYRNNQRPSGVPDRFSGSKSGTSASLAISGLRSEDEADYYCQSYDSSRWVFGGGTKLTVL
koff: 1e-05 s⁻¹

INPUT: Given the entry A10-1C04 (Fab) (Fab, V domains shown, Fab secreted by E. coli, tested as culture supernatant; also called V1) VH: EVQLLESGGGLVQPGGSLRLSCAASGFTFSDYYMNWVRQAPGKGLEWVSSISRYSSYIYYADSVKGRFTISRDNSKNTLYLQMNSLRAEDTAVYYCARDIGGMDVWGQGTLVTVSS VL: QSVLTQPPSASGTPGQRVTISCTGSSSNIGAVYDVHWYQQLPGTAPKLLIYRNNQRPSGVPDRFSGSKSGTSASLAISGLRSEDEADYYCQTYDSSRWVFGGGTKLTVL , report its measured koff.
OUTPUT: ≤ 1e-05 s⁻¹
